This collection of values is drawn from patent US10468722B2.

assay: physchem; details: organic solvent or mixture
metric: solubility (mM)
The figure you give is taken to be in mM; do not add the unit.

INSERT INTO results (structure_string, numeric_value) VALUES
  ('CC(C)(C)C[N+](C)(C)C.[F-]', 190);

Okay, next one:
IN: State its solubility for this molecule: `CC(C)(C)C[N+](C)(C)CC(C)(C)C.[F-]`
OUT: 340
